Each recorded value in this set is attributed to the supplement of paper PMC10567573.

B1: ELF3 (parent)
chain: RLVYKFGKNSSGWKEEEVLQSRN

Variants of: B1
Assay Details: protein stability index of a GFP-peptide fusion (GPS, HEK-293T) (PSI 1-6); higher = more stable;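 note: lentivirally expressed fusions sorted by FACS into six bins by GFP to DsRed ratio, PSI derived from sequencing read proportions per bin multiplied by bin number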
Run Conditions: c terminus: native
Given measured protein stability index, output true (1) if it is greater than or equal to 2 and false (0) if not.

RLVYKFGKNSSGWKEEEVTQSRN [L19T]    true (1)
RLVYKFIKNSSGWKEEEVLQSRN [G7I]    false (0)

Q: Form field: protein stability index at least 2? Entry: RLVYKFGKDSSGWKEEEVLQSRN [N9D]
Ans: true (1)

Q: Form field: protein stability index at least 2? Entry: RHVYKFGKNSSGWKEEEVLQSRN [L2H]
Ans: true (1)

Q: Form field: protein stability index at least 2? Entry: RLCYKFGKNSSGWKEEEVLQSRN [V3C]
Ans: false (0)
